- System: large crabgrass (Digitaria sanguinalis, DIGSA)
- method: Post-emerge greenhouse herbicide activity screening, phytotoxicity rating
- Assay type: in vivo
- measurement.parameters: 125 g ai/ha, 14 days after application
- Procedure: A standard greenhouse herbicide activity screening system was used to evaluate the herbicidal efficacy and crop safety of these test compounds. […] At 14 days after application of the test materials, phytotoxicity ratings were recorded. […]
reported.metric: DIGSA phytotoxicity rating (0-100 scale)
// response body must contain only the number

Ask: Give the measured DIGSA phytotoxicity rating (0-100 scale) for Fc1cc(Cl)c(Oc2ncccn2)cc1-c1nn2c(c1Cl)CCCC2 [Compound 6-1]
Result: 90

Ask: Give recorded DIGSA phytotoxicity rating (0-100 scale). Cn1nc(-c2cc(Oc3ncccn3)c(Cl)cc2F)c(=O)n(C)c1=S [Compound 4-1]
Result: 50

Ask: Name the recorded DIGSA phytotoxicity rating (0-100 scale) of the item Cn1c(=S)n(C)c(=O)n(-c2cc(Oc3ccccc3N)c(Cl)cc2F)c1=O [Compound 2-18] in your answer.
Result: 0

Ask: Supply DIGSA phytotoxicity rating (0-100 scale) value. Item: Cn1c(C(F)(F)F)cc(=O)n(-c2cc(Oc3ccccc3[N+](=O)[O-])c(Cl)cc2F)c1=S [Compound 1-49]
Result: 0

Ask: Identify measured DIGSA phytotoxicity rating (0-100 scale) corresponding to Cn1c(C(F)(F)F)cc(=O)n(-c2cc(Oc3ncccc3[N+](=O)[O-])c(Cl)cc2F)c1=S [Compound 1-9]
Result: 50

Ask: Name the recorded DIGSA phytotoxicity rating (0-100 scale) of the item Cn1c(C(F)(F)F)cc(=O)n(-c2cc(Oc3ccccc3C#N)c(Cl)cc2F)c1=S [Compound 1-66] in your answer.
Result: 0

Ask: Please list DIGSA phytotoxicity rating (0-100 scale) recorded for the compound Cn1c(=S)n(C)c(=O)n(-c2cc(Oc3ncccn3)c(Cl)cc2F)c1=O [Compound 2-1]
Result: 55

Ask: Please give the documented DIGSA phytotoxicity rating (0-100 scale) of Cn1c(C(F)(F)F)cc(=O)n(-c2cc(Oc3ccccc3)c(C#N)cc2F)c1=S [Compound 1-69]
Result: 0

###

Give SOY crop damage, phytotoxicity rating (0-100 scale) for every item shown.
- Test system: soybean (Glycine max L., var. Pella 86, SOY)
- method: Pre-emerge greenhouse screening, crop safety (phytotoxicity rating)
- Type: in vivo
- measurement.parameters: 125 g ai/ha, 14 days after application
- Description: A standard greenhouse herbicide activity screening system was used to evaluate the herbicidal efficacy and crop safety of these test compounds. […] At 14 days after application of the test materials, phytotoxicity ratings were recorded. […]
Lab note: record just the number, no unit beside it.

Ask: Tell me SOY crop damage, phytotoxicity rating (0-100 scale) reported for Cn1c(C(F)(F)F)cc(=O)n(-c2cc(Oc3ccccc3[N+](=O)[O-])c(Cl)cc2F)c1=S [Compound 1-49]
Result: 0

Ask: Respond only with SOY crop damage, phytotoxicity rating (0-100 scale) recorded for Cn1nc(-c2cc(Oc3ncccn3)c(Cl)cc2F)c(=O)n(C)c1=S [Compound 4-1]
Result: 0

Ask: For Fc1cc(Cl)c(Oc2ncccn2)cc1-c1nn2c(c1Br)CCCC2 [Compound 6-2] , write its SOY crop damage, phytotoxicity rating (0-100 scale).
Result: 25

Ask: Let me know recorded SOY crop damage, phytotoxicity rating (0-100 scale) for Cn1nc(-c2cc(Oc3ncccn3)c(Cl)cc2F)c(Cl)c1[S+]([O-])C(F)F (centres unmarked) [Compound 5-1] , thanks.
Result: 0

Ask: Return SOY crop damage, phytotoxicity rating (0-100 scale) (reported value) for this molecule: Cn1c(C(F)(F)F)cc(=O)n(-c2cc(Oc3ncccc3C(F)(F)F)c(Cl)cc2F)c1=S [Compound 1-15]
Result: 0

Ask: For the molecule Cn1c(C(F)(F)F)cc(=O)n(-c2cc(Oc3ncccn3)c(Cl)cc2F)c1=S [Compound 1-1] , report SOY crop damage, phytotoxicity rating (0-100 scale).
Result: 100

Ask: In one line, give reported SOY crop damage, phytotoxicity rating (0-100 scale) of the entry Cn1c(=S)n(C)c(=O)n(-c2cc(Oc3ccccc3N)c(Cl)cc2F)c1=O [Compound 2-18] .
Result: 0

Ask: # return recorded SOY crop damage, phytotoxicity rating (0-100 scale) for entry Fc1cc(Cl)c(Oc2ncccn2)cc1-c1nn2c(c1Cl)CCCC2 [Compound 6-1]
Result: 25

Ask: Give the reported value of SOY crop damage, phytotoxicity rating (0-100 scale) for this record: COc1ccccc1Oc1cc(-n2c(=O)cc(C(F)(F)F)n(C)c2=S)c(F)cc1C#N [Compound 1-71]
Result: 45

Ask: Complete the entry with SOY crop damage, phytotoxicity rating (0-100 scale) for Cn1c(C(F)(F)F)cc(=O)n(-c2cc(Oc3ccccc3)c(Cl)cc2F)c1=S [Compound 1-47]
Result: 50

Ask: Determine from records and report SOY crop damage, phytotoxicity rating (0-100 scale) for Cn1c(C(F)(F)F)cc(=O)n(-c2cc(Oc3ccccc3N)c(Cl)cc2F)c1=S [Compound 1-48]
Result: 0

Ask: Please indicate SOY crop damage, phytotoxicity rating (0-100 scale) recorded for N#Cc1c(-c2cc(Oc3ncccn3)c(Cl)cc2F)nn2c1CCCC2 [Compound 6-17]
Result: 0

Ask: Hello, please tell me recorded SOY crop damage, phytotoxicity rating (0-100 scale) for this one: Cn1c(=S)n(C)c(=O)n(-c2cc(Oc3ncccn3)c(Cl)cc2F)c1=O [Compound 2-1]
Result: 90

Ask: // Input: Cn1c(=S)n(C)c(=O)n(-c2cc(Oc3ccccc3[N+](=O)[O-])c(Cl)cc2F)c1=O [Compound 2-17] . Output its SOY crop damage, phytotoxicity rating (0-100 scale) only.
Result: 0

Ask: Quote SOY crop damage, phytotoxicity rating (0-100 scale) reported for Cn1c(C(F)(F)F)cc(=O)n(-c2cc(Oc3ccccc3O)c(C#N)cc2F)c1=S [Compound 1-70] please.
Result: 30

Ask: Respond only with SOY crop damage, phytotoxicity rating (0-100 scale) recorded for COc1ccc(Oc2cc(-n3c(=O)cc(C(F)(F)F)n(C)c3=S)c(F)cc2C#N)cc1 [Compound 1-72]
Result: 0

Ask: Consider the molecule Cn1c(C(F)(F)F)cc(=O)n(-c2cc(Oc3ncccc3[N+](=O)[O-])c(Cl)cc2F)c1=S [Compound 1-9] and give its recorded SOY crop damage, phytotoxicity rating (0-100 scale).
Result: 50

Ask: Identify measured SOY crop damage, phytotoxicity rating (0-100 scale) associated with Cn1c(C(F)(F)F)cc(=O)n(-c2cc(Oc3ccccc3C#N)c(Cl)cc2F)c1=S [Compound 1-66]
Result: 0

Ask: Read the entry Cn1c(C(F)(F)F)cc(=O)n(-c2cc(Oc3ccccc3)c(C#N)cc2F)c1=S [Compound 1-69] and write its reported SOY crop damage, phytotoxicity rating (0-100 scale).
Result: 30

Ask: State its SOY crop damage, phytotoxicity rating (0-100 scale) for this molecule: Cn1c(=S)n(C)c(=O)n(-c2cc(Oc3ccccc3)c(Cl)cc2F)c1=O [Compound 2-16]
Result: 0

###

- Tested on: soybean (Glycine max L., var. Pella 86, SOY)
- method: Post-emerge greenhouse screening, crop safety (phytotoxicity rating)
- Assay type: in vivo
- measurement.parameters: 250 g ai/ha, 14 days after application
Field: SOY crop damage, phytotoxicity rating (0-100 scale). Provide a value for each of the compounds that follow.
Answer as a number with no unit attached.

Ask: Specify SOY crop damage, phytotoxicity rating (0-100 scale) for "N#Cc1c(-c2cc(Oc3ncccn3)c(Cl)cc2F)nn2c1CCCC2" , system soybean (Glycine max L., var. Pella 86, SOY).
Result: 70

Ask: GET SOY crop damage, phytotoxicity rating (0-100 scale) where system = soybean (Glycine max L., var. Pella 86, SOY) and item = "Fc1cc(Cl)c(Oc2ncccn2)cc1-c1nn2c(c1Cl)CCCC2"
Result: 100

Ask: Fetch value of SOY crop damage, phytotoxicity rating (0-100 scale) on soybean (Glycine max L., var. Pella 86, SOY) for "Cn1c(=S)n(C)c(=O)n(-c2cc(Oc3ccccc3[N+](=O)[O-])c(Cl)cc2F)c1=O" .
Result: 25

Ask: Give SOY crop damage, phytotoxicity rating (0-100 scale) for this entry on soybean (Glycine max L., var. Pella 86, SOY): "Cn1c(C(F)(F)F)cc(=O)n(-c2cc(Oc3ccccc3C#N)c(Cl)cc2F)c1=S"
Result: 10

Ask: Enter recorded SOY crop damage, phytotoxicity rating (0-100 scale) with soybean (Glycine max L., var. Pella 86, SOY) for "Cn1c(C(F)(F)F)cc(=O)n(-c2cc(Oc3ccccc3)c(C#N)cc2F)c1=S" here.
Result: 50

###

- System: soybean (Glycine max L., var. Pella 86, SOY)
- method: Post-emerge greenhouse screening, crop safety (phytotoxicity rating)
- Assay type: in vivo
- measurement.parameters: 125 g ai/ha, 14 days after application
Label Criterion met when SOY crop damage, phytotoxicity rating (0-100 scale) is strictly below 50; at or above that, label Criterion not met.

Ask: Decide: SOY crop damage, phytotoxicity rating (0-100 scale) of "Cn1c(=S)n(C)c(=O)n(-c2cc(Oc3ccccc3)c(Cl)cc2F)c1=O" strictly below 50?
Result: Criterion met

Ask: Does the reported SOY crop damage, phytotoxicity rating (0-100 scale) of the following compound sit strictly below 50? "Cn1c(C(F)(F)F)cc(=O)n(-c2cc(Oc3ccccc3O)c(C#N)cc2F)c1=S"
Result: Criterion met

Ask: Is SOY crop damage, phytotoxicity rating (0-100 scale) strictly under 50 for the entry "Cn1c(C(F)(F)F)cc(=O)n(-c2cc(Oc3ncccn3)c(Cl)cc2F)c1=S" ?
Result: Criterion not met

Ask: Regarding "Cn1c(C(F)(F)F)cc(=O)n(-c2cc(Oc3ccccc3[N+](=O)[O-])c(Cl)cc2F)c1=S" , kindly confirm whether its SOY crop damage, phytotoxicity rating (0-100 scale) is beneath 50.
Result: Criterion met

Ask: Field: below-cutoff. Rule: recorded SOY crop damage, phytotoxicity rating (0-100 scale) strictly less than 50. Subject: "Cn1c(C(F)(F)F)cc(=O)n(-c2cc(Oc3ccccc3)c(C#N)cc2F)c1=S"
Result: Criterion met

Ask: API: query returns whether the compound falls strictly under 50 in SOY crop damage, phytotoxicity rating (0-100 scale). Query: "Cn1c(C(F)(F)F)cc(=O)n(-c2cc(Oc3ncccc3[N+](=O)[O-])c(Cl)cc2F)c1=S"
Result: Criterion not met

Ask: Determine whether this compound shows SOY crop damage, phytotoxicity rating (0-100 scale) lower than 50 (ties excluded): "Cn1c(C(F)(F)F)cc(=O)n(-c2cc(Oc3ccccc3C#N)c(Cl)cc2F)c1=S"
Result: Criterion met
